Test system: MCF7 breast
Test: NCI-60 one-dose screen, 48 h (100 = growth as untreated, 0 = no growth, -100 = all killed)
Settings: 10 µM unless noted
About 83,000 compounds went through this panel and 20% of them were active in at least one assay; those are over-represented in the sample as a whole.
Hi! Could you tag entries with growth below 90% as yes, and those at or above as no? Much appreciated.

[
  {
    "molecule": "COc1ccc(Oc2ccc(C3CC(c4cc(OC)c(OC)c(OC)c4)=NN3C(C)=O)cc2)cc1 (centres undefined)",
    "targetDesc": "MCF7 breast",
    "group": "yes"
  },
  {
    "molecule": "CNC(=O)c1cc(Oc2ccc3nc(NC(=O)c4cccc(C(F)(F)F)c4)sc3c2)ccn1",
    "targetDesc": "MCF7 breast",
    "group": "yes"
  },
  {
    "molecule": "CCN1C(=O)N(CC)C2C1NN=C1SC(c3ccccc3)=CC(=O)N12 (centres undefined)",
    "targetDesc": "MCF7 breast",
    "group": "yes"
  },
  {
    "molecule": "COc1ccc(/C=N/Nc2nc(Nc3ccccc3)nc(Nc3ccc(S(N)(=O)=O)cc3)n2)cc1",
    "targetDesc": "MCF7 breast",
    "group": "yes"
  },
  {
    "molecule": "O=c1cc(-c2ccccc2)nc2sc(-c3c[nH]c4ccc(F)cc34)nn12",
    "targetDesc": "MCF7 breast",
    "group": "yes"
  },
  {
    "molecule": "C=C(C)[C@@H]1CC[C@]2(COS(C)(=O)=O)CC[C@]3(C)[C@H](CC[C@@H]4[C@@]5(C)CCCNC(C)(C)[C@@H]5CC[C@]43C)[C@@H]12",
    "targetDesc": "MCF7 breast",
    "group": "yes"
  },
  {
    "molecule": "COc1cc2cc(Oc3ccc(NC(=O)Nc4cc(C(F)(F)F)cc(C(F)(F)F)c4)cc3)c(C)nc2cc1OCCN(C)C",
    "targetDesc": "MCF7 breast",
    "group": "no"
  },
  {
    "molecule": "O=C1c2c(O)cc(O)cc2O[C@@H](c2ccc(O)cc2)[C@@H]1c1c(O)cc(O)c2c(=O)cc(-c3ccc(O)c(O)c3)oc12",
    "targetDesc": "MCF7 breast",
    "group": "no"
  }
]
